The origin of these recorded values is BigSolDB 2.1.

# Condition set: in sec-butanol, 293.15 K

# Chemical structure, solubility (mole fraction)
measured = [
    ("CN(C/C=C/C#CC(C)(C)C)Cc1cccc2ccccc12.Cl", 0.00608),
]

---

# Condition set: in isobutanol, 293.15 K
Reported property: solubility (mole fraction)

# Chemical structure, Quantitative result
measured = [
    ("CN(C/C=C/C#CC(C)(C)C)Cc1cccc2ccccc12.Cl", 0.0159),
]

---

# Condition set: in isobutanol, 313.15 K

# Chemical structure, solubility (mole fraction)
measured = [
    ("CN(C/C=C/C#CC(C)(C)C)Cc1cccc2ccccc12.Cl", 0.045),
]

---

# Condition set: in isooctanol, 323.15 K

# Chemical structure, solubility (mole fraction)
records = [
    ("CN(C/C=C/C#CC(C)(C)C)Cc1cccc2ccccc12.Cl", 0.0221),
]

---

# Condition set: in sec-butanol, 298.15 K

# Chemical structure, solubility (mole fraction)
data = [
    ("CN(C/C=C/C#CC(C)(C)C)Cc1cccc2ccccc12.Cl", 0.0077),
]

---

# Condition set: in n-pentanol, 308.15 K

# Chemical structure, solubility (mole fraction)
records = [
    ("CN(C/C=C/C#CC(C)(C)C)Cc1cccc2ccccc12.Cl", 0.0428),
]

---

# Condition set: in n-butanol, 283.15 K

# Chemical structure, solubility (mole fraction)
records = [
    ("CN(C/C=C/C#CC(C)(C)C)Cc1cccc2ccccc12.Cl", 0.0123),
]

---

# Condition set: in DMSO, 323.15 K

# Chemical structure, solubility (mole fraction)
data = [
    ("CN(C/C=C/C#CC(C)(C)C)Cc1cccc2ccccc12.Cl", 0.0401),
]

---

# Condition set: in n-hexanol, 298.15 K
Reported property: solubility (mole fraction)

# Chemical structure, Reported property, Result
measured = [
    ("CN(C/C=C/C#CC(C)(C)C)Cc1cccc2ccccc12.Cl", "solubility (mole fraction)", 0.0148),
]

---

# Condition set: in n-propanol, 318.15 K

# Chemical structure, solubility (mole fraction)
measured = [
    ("CN(C/C=C/C#CC(C)(C)C)Cc1cccc2ccccc12.Cl", 0.0615),
]

---

# Condition set: in acetonitrile, 298.15 K
Reported property: solubility (mole fraction)

# Chemical structure, Reported property, Quantitative result
data = [
    ("CN(C/C=C/C#CC(C)(C)C)Cc1cccc2ccccc12.Cl", "solubility (mole fraction)", 0.00213),
]

---

# Condition set: in n-pentanol, 313.15 K

# Chemical structure, solubility (mole fraction)
measured = [
    ("CN(C/C=C/C#CC(C)(C)C)Cc1cccc2ccccc12.Cl", 0.0511),
]

---

# Condition set: in n-butanol, 288.15 K
Reported property: solubility (mole fraction)

# Chemical structure, Reported property, Result
data = [
    ("CN(C/C=C/C#CC(C)(C)C)Cc1cccc2ccccc12.Cl", "solubility (mole fraction)", 0.0168),
]

---

# Condition set: in isooctanol, 293.15 K
Reported property: solubility (mole fraction)

# Chemical structure, Reported property, Result
rows = [
    ("CN(C/C=C/C#CC(C)(C)C)Cc1cccc2ccccc12.Cl", "solubility (mole fraction)", 0.00498),
]

---

# Condition set: in DMSO, 313.15 K

# Chemical structure, solubility (mole fraction)
rows = [
    ("CN(C/C=C/C#CC(C)(C)C)Cc1cccc2ccccc12.Cl", 0.0319),
]

---

# Condition set: in DMSO, 293.15 K

# Chemical structure, solubility (mole fraction)
measured = [
    ("CN(C/C=C/C#CC(C)(C)C)Cc1cccc2ccccc12.Cl", 0.0199),
]

---

# Condition set: in isooctanol, 303.15 K

# Chemical structure, solubility (mole fraction)
data = [
    ("CN(C/C=C/C#CC(C)(C)C)Cc1cccc2ccccc12.Cl", 0.00867),
]

---

# Condition set: in isopropanol, 303.15 K

# Chemical structure, solubility (mole fraction)
records = [
    ("CN(C/C=C/C#CC(C)(C)C)Cc1cccc2ccccc12.Cl", 0.00831),
]

---

# Condition set: in sec-butanol, 323.15 K
Reported property: solubility (mole fraction)

# Chemical structure, Quantitative result
data = [
    ("CN(C/C=C/C#CC(C)(C)C)Cc1cccc2ccccc12.Cl", 0.0288),
]

---

# Condition set: in n-butanol, 323.15 K
Reported property: solubility (mole fraction)

# Chemical structure, Result
data = [
    ("CN(C/C=C/C#CC(C)(C)C)Cc1cccc2ccccc12.Cl", 0.0685),
]

---

# Condition set: in isopentanol, 298.15 K

# Chemical structure, solubility (mole fraction)
rows = [
    ("CN(C/C=C/C#CC(C)(C)C)Cc1cccc2ccccc12.Cl", 0.0149),
]

---

# Condition set: in isopropanol, 308.15 K
Reported property: solubility (mole fraction)

# Chemical structure, Reported property, Result
data = [
    ("CN(C/C=C/C#CC(C)(C)C)Cc1cccc2ccccc12.Cl", "solubility (mole fraction)", 0.0106),
]

---

# Condition set: in cyclohexanol, 323.15 K

# Chemical structure, solubility (mole fraction)
rows = [
    ("CN(C/C=C/C#CC(C)(C)C)Cc1cccc2ccccc12.Cl", 0.0774),
]

---

# Condition set: in n-propanol, 303.15 K
Reported property: solubility (mole fraction)

# Chemical structure, Result
records = [
    ("CN(C/C=C/C#CC(C)(C)C)Cc1cccc2ccccc12.Cl", 0.0351),
]

---

# Condition set: in DMSO, 303.15 K

# Chemical structure, solubility (mole fraction)
rows = [
    ("CN(C/C=C/C#CC(C)(C)C)Cc1cccc2ccccc12.Cl", 0.0252),
]

---

# Condition set: in n-butanol, 313.15 K
Reported property: solubility (mole fraction)

# Chemical structure, Quantitative result
records = [
    ("CN(C/C=C/C#CC(C)(C)C)Cc1cccc2ccccc12.Cl", 0.0466),
]

---

# Condition set: in n-propanol, 293.15 K
Reported property: solubility (mole fraction)

# Chemical structure, Quantitative result
records = [
    ("CN(C/C=C/C#CC(C)(C)C)Cc1cccc2ccccc12.Cl", 0.0233),
]

---

# Condition set: in isobutanol, 288.15 K

# Chemical structure, solubility (mole fraction)
data = [
    ("CN(C/C=C/C#CC(C)(C)C)Cc1cccc2ccccc12.Cl", 0.0128),
]

---

# Condition set: in acetonitrile, 293.15 K

# Chemical structure, solubility (mole fraction)
measured = [
    ("CN(C/C=C/C#CC(C)(C)C)Cc1cccc2ccccc12.Cl", 0.00179),
]

---

# Condition set: in acetonitrile, 283.15 K
Reported property: solubility (mole fraction)

# Chemical structure, Result
data = [
    ("CN(C/C=C/C#CC(C)(C)C)Cc1cccc2ccccc12.Cl", 0.0013),
]

---

# Condition set: in n-butanol, 298.15 K
Reported property: solubility (mole fraction)

# Chemical structure, Reported property, Quantitative result
data = [
    ("CN(C/C=C/C#CC(C)(C)C)Cc1cccc2ccccc12.Cl", "solubility (mole fraction)", 0.0251),
]

---

# Condition set: in isopropanol, 293.15 K

# Chemical structure, solubility (mole fraction)
measured = [
    ("CN(C/C=C/C#CC(C)(C)C)Cc1cccc2ccccc12.Cl", 0.00487),
]

---

# Condition set: in n-hexanol, 303.15 K

# Chemical structure, solubility (mole fraction)
rows = [
    ("CN(C/C=C/C#CC(C)(C)C)Cc1cccc2ccccc12.Cl", 0.0185),
]

---

# Condition set: in isobutanol, 323.15 K

# Chemical structure, solubility (mole fraction)
data = [
    ("CN(C/C=C/C#CC(C)(C)C)Cc1cccc2ccccc12.Cl", 0.0693),
]

---

# Condition set: in n-propanol, 313.15 K
Reported property: solubility (mole fraction)

# Chemical structure, Reported property, Result
rows = [
    ("CN(C/C=C/C#CC(C)(C)C)Cc1cccc2ccccc12.Cl", "solubility (mole fraction)", 0.0519),
]

---

# Condition set: in acetonitrile, 288.15 K
Reported property: solubility (mole fraction)

# Chemical structure, Reported property, Quantitative result
measured = [
    ("CN(C/C=C/C#CC(C)(C)C)Cc1cccc2ccccc12.Cl", "solubility (mole fraction)", 0.00153),
]

---

# Condition set: in n-pentanol, 318.15 K
Reported property: solubility (mole fraction)

# Chemical structure, Reported property, Result
data = [
    ("CN(C/C=C/C#CC(C)(C)C)Cc1cccc2ccccc12.Cl", "solubility (mole fraction)", 0.0601),
]

---

# Condition set: in isooctanol, 308.15 K
Reported property: solubility (mole fraction)

# Chemical structure, Quantitative result
records = [
    ("CN(C/C=C/C#CC(C)(C)C)Cc1cccc2ccccc12.Cl", 0.0109),
]

---

# Condition set: in isopentanol, 313.15 K
Reported property: solubility (mole fraction)

# Chemical structure, Quantitative result
measured = [
    ("CN(C/C=C/C#CC(C)(C)C)Cc1cccc2ccccc12.Cl", 0.0298),
]
